# procedureSummary: Photostationary state (PSS) and lambda max under simulated sunlight (solar simulator)
# Assay type: physicochemical
# particulars: peak in the visible range, ring-closed (dark) state

| molecule | λmax (nm) |
| --- | --- |
| COc1cc2oc(-c3ccc(C(C)(C)C)cc3)c(C3=C(c4cc(-c5cc6c(s5)C(C)(C)CCC6(C)C)sc4-c4cc5c(s4)C(C)(C)CCC5(C)C)C(F)(F)C(F)(F)C3(F)F)c2cc1OC | 594 nm |
| CCOC(=O)CCCOc1cc2oc(-c3ccc(C(C)(C)C)cc3)c(C3=C(c4cc(-c5ccc(C(C)(C)C)s5)sc4-c4ccc(C(C)(C)C)s4)C(F)(F)C(F)(F)C3(F)F)c2cc1OCCCC(=O)OCC [Chromophore S374] | 590 nm |
| CCOC(=O)CCCOc1cc2oc(-c3ccc(C(C)(C)C)cc3)c(C3=C(c4cc(-c5cc(C(C)(C)C)cs5)sc4-c4cc(C(C)(C)C)cs4)C(F)(F)C(F)(F)C3(F)F)c2cc1OCCCC(=O)OCC [Chromophore S386] | 593 nm |
| CC(=O)Oc1cc2oc(-c3ccc(C(C)(C)C)cc3)c(C3=C(c4cc(-c5ccc(C(C)(C)C)s5)sc4-c4ccc(C(C)(C)C)s4)C(F)(F)C(F)(F)C3(F)F)c2cc1OC(C)=O [Chromophore S367] | 583 nm |
| CCOC(=O)CCCOc1cc2oc(-c3ccc(C(C)(C)C)cc3)c(C3=C(c4cc(-c5sc(C(C)(C)C)cc5C)sc4-c4sc(C(C)(C)C)cc4C)C(F)(F)C(F)(F)C3(F)F)c2cc1OCCCC(=O)OCC [Chromophore S384] | 593 nm |
| COc1cc2oc(-c3ccc(C(C)(C)C)cc3)c(C3=C(c4cc(-c5cccs5)sc4-c4cccs4)C(F)(F)C(F)(F)C3(F)F)c2cc1OC [Chromophore S193] | 587 nm |
| CC(C)(C)c1ccc(-c2oc3cc(OCCN4C(=O)CCC4=O)c(OCCN4C(=O)CCC4=O)cc3c2C2=C(c3cc(-c4cc(C(C)(C)C)cs4)sc3-c3cc(C(C)(C)C)cs3)C(F)(F)C(F)(F)C2(F)F)cc1 | 585 nm |
| CCOC(=O)CCCOc1cc2oc(-c3ccc(C(C)(C)C)cc3)c(C3=C(c4cc(-c5ccc(C(C)(C)C)s5)sc4-c4sc(C(C)(C)C)cc4C)C(F)(F)C(F)(F)C3(F)F)c2cc1OCCCC(=O)OCC [Chromophore S383] | 590 nm |
| COc1cc2oc(-c3ccc(C(C)(C)C)cc3)c(C3=C(c4cc(-c5ccc(C(C)(C)C)s5)sc4-c4sc(C(C)(C)C)cc4C)C(F)(F)C(F)(F)C3(F)F)c2cc1OC [Chromophore S378] | 593 nm |
| COc1ccc2oc(-c3ccc(C(C)(C)C)cc3)c(C3=C(c4cc(-c5cc6c(s5)C(C)(C)CCC6(C)C)sc4-c4cc5c(s4)C(C)(C)CCC5(C)C)C(F)(F)C(F)(F)C3(F)F)c2c1 [Chromophore S400] | 592 nm |
| COCCOc1cc2oc(-c3ccc(C(C)(C)C)cc3)c(C3=C(c4cc(-c5ccc(C(C)(C)C)s5)sc4-c4ccc(C(C)(C)C)s4)C(F)(F)C(F)(F)C3(F)F)c2cc1OCCOC [Chromophore S364] | 593 nm |
| COc1cc2oc(-c3ccc(C(C)(C)C)cc3)c(C3=C(c4cc(-c5cc(C(C)(C)C)cs5)sc4-c4cc(C(C)(C)C)cs4)C(F)(F)C(F)(F)C3(F)F)c2cc1OC [Chromophore S377] | 593 nm |
| CCOC(=O)CCCOc1cc2oc(-c3ccc(C(C)(C)C)cc3)c(C3=C(c4cc(-c5cc6c(s5)C(C)(C)CCC6(C)C)sc4-c4cc5c(s4)C(C)(C)CCC5(C)C)C(F)(F)C(F)(F)C3(F)F)c2cc1OCCCC(=O)OCC [Chromophore S387] | 594 nm |
